Give inhibition at 1 h, 25 µM for every item shown.
Target: AURKA (Homo sapiens, UniProt O14965)
Sequence (O14965 whole entry): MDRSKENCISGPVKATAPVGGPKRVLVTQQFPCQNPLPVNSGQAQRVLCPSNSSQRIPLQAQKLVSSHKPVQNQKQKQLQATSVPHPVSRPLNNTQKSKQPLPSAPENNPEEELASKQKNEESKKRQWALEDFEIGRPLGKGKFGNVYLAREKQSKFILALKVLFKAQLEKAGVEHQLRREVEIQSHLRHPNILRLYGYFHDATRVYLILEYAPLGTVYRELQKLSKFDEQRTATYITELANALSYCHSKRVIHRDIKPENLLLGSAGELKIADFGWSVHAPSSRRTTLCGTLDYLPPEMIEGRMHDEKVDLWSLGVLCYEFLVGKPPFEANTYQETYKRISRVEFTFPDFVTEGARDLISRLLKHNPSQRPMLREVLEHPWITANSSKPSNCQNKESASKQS
Assay: Inhibition of recombinant human full-length His-tagged AURKA expressed in baculovirus expression system at 25 uM using FRET-labeled Ser/Thr 01 peptide as substrate measured after 1 hr by Z'-lyte assay relative to control
Conditions: probe FRET-labeled Ser/Thr 01 peptide
Express your answer in %, writing the number without its unit.

Look at this molecule and give its reported inhibition at 1 h, 25 µM. Nc1ncc2cc(-c3c(Br)cccc3Br)c(N)nc2n1
20

Also Nc1ncc2cc(-c3c(Cl)cccc3-c3cccnc3)c(N3C[C@@H]4[C@@H](N)[C@@H]4C3)nc2n1 , if possible.
9

====

Target: NTRK1 (Homo sapiens)
Sequence (P04629 whole entry, the tested form may be a part): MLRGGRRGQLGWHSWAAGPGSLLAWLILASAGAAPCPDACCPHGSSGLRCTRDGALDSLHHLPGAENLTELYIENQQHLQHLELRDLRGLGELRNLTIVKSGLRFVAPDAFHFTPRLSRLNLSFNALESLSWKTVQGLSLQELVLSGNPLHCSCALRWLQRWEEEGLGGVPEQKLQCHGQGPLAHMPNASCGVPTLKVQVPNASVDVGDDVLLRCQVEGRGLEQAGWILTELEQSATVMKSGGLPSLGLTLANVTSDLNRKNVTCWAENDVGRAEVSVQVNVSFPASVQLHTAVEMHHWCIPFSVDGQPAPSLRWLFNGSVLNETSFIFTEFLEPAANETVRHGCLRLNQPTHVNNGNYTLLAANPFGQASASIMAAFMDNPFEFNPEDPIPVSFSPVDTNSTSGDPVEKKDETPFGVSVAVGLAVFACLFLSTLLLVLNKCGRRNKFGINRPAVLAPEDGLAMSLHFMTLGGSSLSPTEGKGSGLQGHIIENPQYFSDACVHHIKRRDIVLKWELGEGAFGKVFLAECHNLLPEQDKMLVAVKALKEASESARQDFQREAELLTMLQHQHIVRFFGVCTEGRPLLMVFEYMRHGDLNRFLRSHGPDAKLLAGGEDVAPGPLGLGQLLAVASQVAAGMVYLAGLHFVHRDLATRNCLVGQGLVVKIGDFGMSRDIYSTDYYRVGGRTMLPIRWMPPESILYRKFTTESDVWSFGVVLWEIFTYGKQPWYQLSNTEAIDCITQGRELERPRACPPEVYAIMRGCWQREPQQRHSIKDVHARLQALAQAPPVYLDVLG
Test: Inhibition of recombinant human His-tagged NTRK1 cytoplasmic domain (441 to 796 residues) expressed in baculovirus expression system at 25 uM using FRET-labeled tyr 07 peptide as substrate measured after 1 hr by Z'-lyte assay relative to control
Details: probe FRET-labeled tyr 07 peptide
Give inhibition at 1 h, 25 µM for every item shown.
Express your answer in %, writing the number without its unit.

Look at this compound and give its reported inhibition at 1 h, 25 µM. Nc1ncc2cc(-c3c(Cl)cccc3-c3cccnc3)c(N3C[C@@H]4[C@@H](N)[C@@H]4C3)nc2n1
47

Also Nc1ncc2cc(-c3c(Br)cccc3Br)c(N)nc2n1 , if possible.
47

Also CC(C)COc1cccc(Cl)c1-c1cc2cnc(N)nc2nc1N1C[C@@H]2[C@@H](N)[C@@H]2C1 , if possible.
40

====

Target: GSK3B (Homo sapiens, UniProt P49841)
Sequence (P49841 whole entry): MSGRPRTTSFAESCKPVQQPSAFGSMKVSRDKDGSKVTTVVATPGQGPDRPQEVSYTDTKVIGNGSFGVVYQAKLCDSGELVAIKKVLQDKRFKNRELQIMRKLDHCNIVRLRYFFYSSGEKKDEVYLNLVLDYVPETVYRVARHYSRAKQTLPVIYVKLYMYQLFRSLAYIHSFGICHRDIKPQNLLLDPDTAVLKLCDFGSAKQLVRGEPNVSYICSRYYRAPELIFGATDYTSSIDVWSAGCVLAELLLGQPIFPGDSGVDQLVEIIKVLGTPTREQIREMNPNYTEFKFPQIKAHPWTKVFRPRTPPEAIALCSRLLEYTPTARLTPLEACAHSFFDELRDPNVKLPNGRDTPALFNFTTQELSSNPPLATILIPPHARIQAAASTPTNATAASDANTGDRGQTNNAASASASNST
Test: Inhibition of recombinant human full-length His-tagged GSK3B expressed in baculovirus expression system at 25 uM using FRET-labeled Ser/Thr 09 peptide as substrate measured after 1 hr by Z'-lyte assay relative to control
Conditions: probe FRET-labeled Ser/Thr 09 peptide
Give inhibition at 1 h, 25 µM for every item shown.
Express your answer in %, writing the number without its unit.

Look at this molecule and give its reported inhibition at 1 h, 25 µM. CC(C)COc1cccc(Cl)c1-c1cc2cnc(N)nc2nc1N1C[C@@H]2[C@@H](N)[C@@H]2C1
7

Also Nc1ncc2cc(-c3c(Cl)cccc3-c3cccnc3)c(N3C[C@@H]4[C@@H](N)[C@@H]4C3)nc2n1 , if possible.
4

Also Nc1ncc2cc(-c3c(Br)cccc3Br)c(N)nc2n1 , if possible.
6

====

Biological target: CSNK1D (Homo sapiens)
Sequence (P48730 whole entry): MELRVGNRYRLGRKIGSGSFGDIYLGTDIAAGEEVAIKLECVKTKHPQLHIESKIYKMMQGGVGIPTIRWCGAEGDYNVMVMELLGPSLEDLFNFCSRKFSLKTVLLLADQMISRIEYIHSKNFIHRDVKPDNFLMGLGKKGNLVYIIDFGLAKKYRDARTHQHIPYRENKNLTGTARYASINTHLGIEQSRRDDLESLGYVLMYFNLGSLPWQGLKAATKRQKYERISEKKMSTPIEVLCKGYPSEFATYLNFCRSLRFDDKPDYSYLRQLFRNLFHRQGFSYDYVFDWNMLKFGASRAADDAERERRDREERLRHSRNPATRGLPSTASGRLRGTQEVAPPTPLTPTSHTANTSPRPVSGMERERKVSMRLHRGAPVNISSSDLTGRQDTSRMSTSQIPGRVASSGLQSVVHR
Assay: Inhibition of recombinant human full-length GST-tagged CSNK1D expressed in baculovirus expression system at 25 uM using FRET-labeled Ser/Thr 11 peptide as substrate measured after 1 hr by Z'-lyte assay relative to control
Conditions: probe FRET-labeled Ser/Thr 11 peptide
Measurement label: inhibition at 1 h, 25 µM (%)
Express your answer in %, writing the number without its unit.

Look at this molecule and give its reported inhibition at 1 h, 25 µM. Nc1ncc2cc(-c3c(Cl)cccc3-c3cccnc3)c(N3C[C@@H]4[C@@H](N)[C@@H]4C3)nc2n1
3

Also Nc1ncc2cc(-c3c(Br)cccc3Br)c(N)nc2n1 , if possible.
16

Also CC(C)COc1cccc(Cl)c1-c1cc2cnc(N)nc2nc1N1C[C@@H]2[C@@H](N)[C@@H]2C1 , if possible.
3

====

Target: ABL1 (Homo sapiens, UniProt P00519)
Sequence (P00519 whole entry, the tested form may be a part): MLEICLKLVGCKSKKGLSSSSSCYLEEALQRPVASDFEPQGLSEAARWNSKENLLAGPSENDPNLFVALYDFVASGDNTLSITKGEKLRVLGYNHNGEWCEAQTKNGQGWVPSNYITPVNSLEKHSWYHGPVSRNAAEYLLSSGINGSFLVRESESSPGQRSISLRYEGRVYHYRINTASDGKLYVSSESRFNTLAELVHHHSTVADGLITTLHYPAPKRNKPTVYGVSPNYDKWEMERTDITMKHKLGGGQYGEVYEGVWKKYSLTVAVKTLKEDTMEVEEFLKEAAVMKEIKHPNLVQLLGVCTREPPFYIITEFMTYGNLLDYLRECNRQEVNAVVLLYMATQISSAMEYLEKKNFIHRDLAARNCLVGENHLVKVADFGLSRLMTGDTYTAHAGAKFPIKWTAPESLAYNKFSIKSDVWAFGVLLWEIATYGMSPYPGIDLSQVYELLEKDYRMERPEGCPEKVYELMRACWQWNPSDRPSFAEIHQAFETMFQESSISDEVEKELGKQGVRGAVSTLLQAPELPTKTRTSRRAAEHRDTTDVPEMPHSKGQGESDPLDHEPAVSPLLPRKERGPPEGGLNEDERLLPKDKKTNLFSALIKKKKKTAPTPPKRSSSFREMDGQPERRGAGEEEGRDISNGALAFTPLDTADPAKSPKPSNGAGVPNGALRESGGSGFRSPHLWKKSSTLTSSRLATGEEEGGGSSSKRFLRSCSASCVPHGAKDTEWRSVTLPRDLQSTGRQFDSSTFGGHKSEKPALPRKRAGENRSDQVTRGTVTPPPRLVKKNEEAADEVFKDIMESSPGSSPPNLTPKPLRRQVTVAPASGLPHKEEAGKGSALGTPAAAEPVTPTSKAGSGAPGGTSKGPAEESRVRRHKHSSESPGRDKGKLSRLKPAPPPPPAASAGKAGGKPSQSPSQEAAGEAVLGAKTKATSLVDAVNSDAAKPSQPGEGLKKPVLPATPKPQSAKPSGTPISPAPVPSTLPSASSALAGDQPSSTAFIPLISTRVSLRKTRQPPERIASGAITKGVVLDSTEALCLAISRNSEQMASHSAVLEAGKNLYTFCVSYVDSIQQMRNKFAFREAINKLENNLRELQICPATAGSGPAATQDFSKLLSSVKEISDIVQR
Assay: Inhibition of full-length recombinant human His-tagged ABL1 cytoplasmic domain expressed in baculovirus expression system at 25 uM using FRET-labeled tyr 02 peptide as substrate measured after 1 hr by Z'-lyte assay relative to control
Settings: probe FRET-labeled tyr 02 peptide
Measurement label: inhibition at 1 h, 25 µM (%)
Express your answer in %, writing the number without its unit.

Look at this compound and give its reported inhibition at 1 h, 25 µM. Nc1ncc2cc(-c3c(Cl)cccc3-c3cccnc3)c(N3C[C@@H]4[C@@H](N)[C@@H]4C3)nc2n1
38

Also Nc1ncc2cc(-c3c(Br)cccc3Br)c(N)nc2n1 , if possible.
97

Also CC(C)COc1cccc(Cl)c1-c1cc2cnc(N)nc2nc1N1C[C@@H]2[C@@H](N)[C@@H]2C1 , if possible.
30

====

Target: UniProtKB Q14164
Sequence (Q14164 whole entry): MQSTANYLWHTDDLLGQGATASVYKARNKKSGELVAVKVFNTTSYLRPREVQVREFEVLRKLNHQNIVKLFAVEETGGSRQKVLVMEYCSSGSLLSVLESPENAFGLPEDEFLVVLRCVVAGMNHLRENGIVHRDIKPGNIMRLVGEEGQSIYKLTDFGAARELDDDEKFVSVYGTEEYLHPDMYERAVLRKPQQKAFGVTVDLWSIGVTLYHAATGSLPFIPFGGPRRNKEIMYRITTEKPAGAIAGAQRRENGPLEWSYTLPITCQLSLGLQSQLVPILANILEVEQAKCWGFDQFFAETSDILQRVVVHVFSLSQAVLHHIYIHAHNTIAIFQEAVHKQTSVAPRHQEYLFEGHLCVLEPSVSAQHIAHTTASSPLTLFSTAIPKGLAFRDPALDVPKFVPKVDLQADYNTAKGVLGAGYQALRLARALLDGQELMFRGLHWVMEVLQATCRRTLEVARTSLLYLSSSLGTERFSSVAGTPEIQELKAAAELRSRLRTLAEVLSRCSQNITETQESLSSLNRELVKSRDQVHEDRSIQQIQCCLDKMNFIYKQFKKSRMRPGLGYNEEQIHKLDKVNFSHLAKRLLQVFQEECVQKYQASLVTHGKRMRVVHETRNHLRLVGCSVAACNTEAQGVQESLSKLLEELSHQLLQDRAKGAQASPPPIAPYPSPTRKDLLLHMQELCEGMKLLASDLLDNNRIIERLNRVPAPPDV
Test: in vitro
Settings: probe FRET-labeled Ser/Thr 11 peptide
Give inhibition at 1 h, 25 µM for every item shown.
Express your answer in %, writing the number without its unit.

Look at this compound and give its reported inhibition at 1 h, 25 µM. Nc1ncc2cc(-c3c(Cl)cccc3-c3cccnc3)c(N3C[C@@H]4[C@@H](N)[C@@H]4C3)nc2n1
3

Also CC(C)COc1cccc(Cl)c1-c1cc2cnc(N)nc2nc1N1C[C@@H]2[C@@H](N)[C@@H]2C1 , if possible.
0

Entry source: ChEMBL document CHEMBL4406811
